test system: JHH-1 (Hepatocellular Carcinoma); assay: Bliss excess, mean over the matrix (fraction); higher = more synergy;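 also: after 72 h of two-drug dosing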
Bliss excess listing for selected compounds.
Measured Property: Bliss excess

compound="COc1cccc(OCCCN)c1-c1cc(Nc2cnc(C#N)cn2)n[nH]1 [Prexasertib] + CCc1c2c(nc3ccc(O)cc13)-c1cc3c(c(=O)n1C2)COC(=O)[C@]3(O)CC [SN-38] (first compound max 1 µM, 7x7, partner max 0.3 µM)" quantitative_readout=-0.11
compound="NC1(C(=O)N[C@@H](CCO)c2ccc(Cl)cc2)CCN(c2ncnc3[nH]ccc23)CC1 [Capivasertib] + Cn1cnc2c(F)c(Nc3ccc(Br)cc3Cl)c(C(=O)NOCCO)cc21 [Selumetinib] (first compound max 10 µM, 7x7, partner max 10 µM)" quantitative_readout=-0.0896

----------
system: LOUCY (T-Lymphoblastic Leukemia); assay: combination Emax (second highest fraction inhibited in the dose matrix, 72 h); higher = more inhibition; extreme values may be limits of the assay
Examples of molecules with documented combination Emax follow.
Measured Property: combination Emax

molecule="C[C@@H](Oc1cc(-c2cnn(C3CCNCC3)c2)cnc1N)c1c(Cl)ccc(F)c1Cl [Crizotinib] + CC1=C(C(=CC=C1)Cl)NC(=O)C2=CN=C(S2)NC3=CC(=NC(=N3)C)N4CCN(CC4)CCO [Dasatinib] (first compound max 10 µM, 7x7, partner max 2 µM)" quantitative_readout=0.674
molecule="C[C@@H](Nc1cc(F)cc(F)c1)c1cc(C(=O)N(C)C)cc2c(=O)cc(N3CCOCC3)oc12 [AZD8186] + C1CN(CCC1(C(=O)N[C@@H](CCO)C2=CC=C(C=C2)Cl)N)C3=NC=NC4=C3C=CN4 [AZD5363] (first compound max 10 µM, 7x7, partner max 10 µM)" quantitative_readout=0.494

----------
Each entry below lists one item and its recorded combination Emax value.
system: OV-90 (Ovarian Carcinoma); assay: combination Emax (second highest fraction inhibited in the dose matrix, 72 h); higher = more inhibition; extreme values may be limits of the assay
Measured Property: combination Emax

compound="COc1nnc2ccc(N3CCC(c4ccc(OCCN5CCN(C)C(=O)[C@H]5C)cc4)CC3)nn12 [AZD5153] + CCN(CCO)CCCOc1ccc2c(Nc3cc(CC(=O)Nc4cccc(F)c4)[nH]n3)ncnc2c1 [AZD2811] (first compound max 1 µM, 7x7, partner max 1 µM)" quantitative_readout=0.352
compound="NC1(C(=O)N[C@@H](CCO)c2ccc(Cl)cc2)CCN(c2ncnc3[nH]ccc23)CC1 [Capivasertib] + COc1nnc2ccc(N3CCC(c4ccc(OCCN5CCN(C)C(=O)[C@H]5C)cc4)CC3)nn12 [AZD5153] (first compound max 10 µM, 7x7, partner max 1 µM)" quantitative_readout=0.596

----------
Each entry below carries its reported combination Emax.
system: CHL-1 (Melanoma); assay: combination Emax (second highest fraction inhibited in the dose matrix, 72 h); higher = more inhibition; extreme values may be limits of the assay
Measured Property: combination Emax

molecule="COc1nnc2ccc(N3CCC(c4ccc(OCCN5CCN(C)C(=O)[C@H]5C)cc4)CC3)nn12 [AZD5153] + CC1(C)CCC(CN2CCN(c3ccc(C(=O)NS(=O)(=O)c4ccc(NCC5CCOCC5)c([N+](=O)[O-])c4)c(Oc4cnc5[nH]ccc5c4)c3)CC2)=C(c2ccc(Cl)cc2)C1 [Venetoclax] (first compound max 1 µM, 7x7, partner max 1 µM)" measured_property="combination Emax" quantitative_readout=0.531
molecule="CC1(C)CCC(CN2CCN(c3ccc(C(=O)NS(=O)(=O)c4ccc(NCC5CCOCC5)c([N+](=O)[O-])c4)c(Oc4cnc5[nH]ccc5c4)c3)CC2)=C(c2ccc(Cl)cc2)C1 [Venetoclax] + C=CCn1c(=O)c2cnc(Nc3ccc(N4CCN(C)CC4)cc3)nc2n1-c1cccc(C(C)(C)O)n1 [AZD1775] (first compound max 1 µM, partner max 1 µM)" measured_property="combination Emax" quantitative_readout=0.891
molecule="COc1cccc(OCCCN)c1-c1cc(Nc2cnc(C#N)cn2)n[nH]1 [Prexasertib] + CN(C)CCCOc1ccc(-c2ccc3ncc4c(c3c2)n(C2CCOCC2)c(=O)n4C)cn1 [AZD0156] (first compound max 1 µM, 7x7, partner max 1 µM)" measured_property="combination Emax" quantitative_readout=0.814
molecule="CN(CCO)CC[C@H](CSc1ccccc1)Nc1ccc(S(=O)(=O)NC(=O)c2ccc(N3CCC([C@@H](O)c4ccccc4-c4ccc(Cl)cc4)CC3)cc2)cc1S(=O)(=O)C(F)(F)F [AZD4320] + CC(=O)O[C@H]1C(=O)[C@@]2(C)[C@H]([C@H](OC(=O)c3ccccc3)[C@]3(O)C[C@H](OC(=O)[C@H](O)[C@@H](NC(=O)c4ccccc4)c4ccccc4)C(C)=C1C3(C)C)[C@]1(OC(C)=O)CO[C@@H]1C[C@@H]2O [Paclitaxel] (first compound max 1 µM, 7x7, partner max 3 µM)" measured_property="combination Emax" quantitative_readout=1
molecule="CS(=O)(=O)CCNCc1ccc(-c2ccc3ncnc(Nc4ccc(OCc5cccc(F)c5)c(Cl)c4)c3c2)o1 [Lapatinib] + Cn1cnc2c(F)c(Nc3ccc(Br)cc3Cl)c(C(=O)NOCCO)cc21 [Selumetinib] (first compound max 10 µM, 7x7, partner max 10 µM)" measured_property="combination Emax" quantitative_readout=0.475
molecule="N#Cc1cnc(Nc2cc(NC[C@H]3CNCCO3)c(C(F)(F)F)cn2)cn1 [SRA737] + CCc1c2c(nc3ccc(O)cc13)-c1cc3c(c(=O)n1C2)COC(=O)[C@]3(O)CC [SN-38] (first compound max 10 µM, 7x7, partner max 0.3 µM)" measured_property="combination Emax" quantitative_readout=0.807
molecule="N#Cc1cnc(Nc2cc(NC[C@H]3CNCCO3)c(C(F)(F)F)cn2)cn1 [SRA737] + O=c1[nH]cc(F)c(=O)[nH]1 [5-Fluorouracil] (first compound max 10 µM, 7x7, partner max 20 µM)" measured_property="combination Emax" quantitative_readout=0.494
